assay: Peg3 promoter reporter inhibitors, retest, confirmation, cell-based, HeLa, luciferase reporter, single concentration (AID 602417); settings: HeLa PEG-Prom luciferase reporter, luminescence, overnight; at 20 µM
Some of the results follow. Activity calls are given as the source filed them.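 The calls were made as follows: active = at 20 µM dose, 40% or more inhibition averaged across four replicates; inactive = the rest.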
Respond using exactly one of the listed classes: active, inactive

Recorded test outcome, item COc1cccc(/C=N/Nc2cc(C)nc(-c3ccccc3O)n2)c1O
active

In this assay, the call recorded for Cc1ccc(OCC(=O)c2cc(C)n(Cc3ccco3)c2C)c([N+](=O)[O-])n1 was what?
active

Test call, this molecule: C=CC[C@@H](CC(=O)N[C@@H](CO)Cc1ccccc1)C(=O)N[C@H](COC(=O)[C@H](CC=C)CC(=O)OC(C)(C)C)Cc1ccccc1
inactive

Identify the outcome logged in this assay for the molecule shown: CN(Cc1ccccc1F)C(=O)C(Cc1ccccc1)NC(=O)c1ccccc1 (configuration not stated)
active

Dear colleague, could you share the recorded outcome for O=C(NCCN1CCOCC1)c1ccc(/C=C2\Sc3ccccc3N(Cc3ccc(F)cc3)C2=O)cc1 when you have a moment?
active

Identify the outcome logged in this assay for the molecule shown: O=C(CSc1nc(Nc2ccccc2)nc(N2CCOCC2)n1)Nc1cc(Cl)ccc1O
active

Returns: the outcome recorded for Cc1nc(SCC(=O)Nc2cc(C)on2)c2c(C)c(C)sc2n1 in this assay.
inactive

Fill in: this test's call for COc1ccc(-c2cc(C(=O)N(C)Cc3ccc(OC)c(OC)c3OC)c3ccccc3n2)cc1OC is ___
active

Recorded test outcome, item COc1cc(NS(=O)(=O)c2ccc3ccccc3c2)c2ncccc2c1
active

Record request — test call for COc1ccc2sc(-c3ccc(S(C)(=O)=O)cc3)c(C#Cc3cncn3C)c2c1
active

# lookup: test call for c1c2c(cc3sc(N4CCCCC4)nc13)OCCO2
inactive

Hey, what did the test say about COc1ccc2[nH]c(=O)c(CN(Cc3cccnc3)S(=O)(=O)c3ccccc3F)cc2c1 ?
active

How was O=C(/C=C/c1ccc(Cl)c([N+](=O)[O-])c1)c1ccc(O)cc1 classified in this test?
active

Hi team, can someone confirm the assay call for C=CCn1c(C)cc(C2=NNC(=NCC)SC2)c1C ?
active

Write down the call the test reported for this molecule. Item: Cc1ccc(C)c(S(=O)(=O)N2CCN(c3ncnc4sccc34)CC2)c1
active

Look up the recorded call for Cc1ccc(-c2cn3cc(C)ccc3n2)cc1 in this test.
active

Any idea what this test logged for CCCCNC(=O)C(C)N(CCN(C)C)C(=O)CCCCCN1C(=O)NC(c2ccc(Cl)cc2)C(C(=O)OCc2ccccc2)=C1C (configuration not stated) ?
active

Can you look up the reported call for Cc1c(C(=O)Nc2cccc(Cl)c2)cn2c(nc3ccccc32)c1C#N for me?
inactive

Test call, this molecule: CCOc1ccc2nc(N(CCCN(C)C)C(=O)c3ccc(C(=O)c4ccccc4)cc3)sc2c1
active

Give the logged outcome of this assay for the following molecule: O=c1[nH]c(=S)[nH]c(O)c1/C=C1\C=Nc2ccccc21
active

Please let me know the test result on file for NS(=O)(=O)c1ccc(N=Nc2c(O)[nH]c3ccc(Br)cc23)cc1 .
inactive

Fill in: this test's call for COc1ccc(C(=O)/C=C/Nc2ccccn2)cc1 is ___
active

Status in this test for CCCc1cc(=O)n2[nH]c(C)c(-c3ccc(Cl)cc3)c2n1 ?
active

Record lookup: outcome of this test for c1ccc(C(=NNc2nc3ccccc3s2)c2ccccn2)cc1 ?
active

Field: outcome | Entry: CSc1nc(N)c(C#N)c(-c2ccccc2Cl)c1C#N
active

Hi team, can someone confirm the assay call for CCn1cc(CN2CCC(C(=O)Nc3cccc(-c4cccc(Cl)c4)c3)CC2)c(C)n1 ?
active

Field: outcome | Entry: Cc1ccc(-c2nc3ccccc3[nH]2)cc1NC(=O)c1sc2ccccc2c1Cl
inactive

In this assay, the call recorded for O=C(Nc1cccc(-c2cccc(Cl)c2)c1)C1CCN(C2CCC2)CC1 was what?
active

Field: outcome | Entry: COc1cccc2c1C(=O)c1c(O)c3c(c(O)c1C2=O)CC(O)(C(C)=NNC(=O)c1ccc(Cl)c(Cl)c1)CC3OC1CC(N)C(O)C(C)O1 (configuration not stated)
active

Short answer needed: outcome of this test for COc1ccc(Nc2ncnc3ccc(Br)cc23)c(OC)c1 ?
active

Write down the call the test reported for this molecule. Item: CN1OC[C@@H]2CN(S(=O)(=O)c3cccc(C(F)(F)F)c3)[C@H](c3ccc(-c4cc5ccccc5o4)cc3)C[C@@H]21
active

Query: recorded result category for COc1ccc(OC)c(Cc2cnc3nc(N)nc(N)c3c2C)c1 in this test
active

These measurements were taken from PubChem BioAssay.
